assay: Cytotoxicity assay (CellTiter 96 AQueous One); assay type: cell-based; settings: human; Huh7.5 cells, 48 h; read-out: CC50 in Huh7.5 cells
measurement.label: CC50 at 48 h

[
  {
    "compound": "COc1cc(C(=O)NS(=O)(=O)c2ccccc2C)ccc1Cc1cn(C)c2ccc(NC(=O)OC3CCCC3)cc12",
    "measurement.label": "CC50 at 48 h",
    "assay.value": "> 100 µM"
  },
  {
    "compound": "O=C(O)c1ccccc1Nc1cccc(OCc2ccc3ccccc3n2)c1",
    "measurement.label": "CC50 at 48 h",
    "assay.value": "33.4 µM"
  },
  {
    "compound": "CCC(CC)(CC(=O)Nc1cccc(/C=C/c2nc(C3CCC3)cs2)c1)C(=O)O",
    "measurement.label": "CC50 at 48 h",
    "assay.value": "> 100 µM"
  },
  {
    "compound": "CN(C)C(=O)CCSC(SCCC(=O)O)c1cccc(/C=C/c2ccc3ccc(Cl)cc3n2)c1 (stereo not shown)",
    "measurement.label": "CC50 at 48 h",
    "assay.value": "> 100 µM"
  }
]
